Just for reference, patent US11415579B2 is where these values come from.

# assay target: human cyclin-dependent kinase 2 (Cdk2) (Homo sapiens)
# Construct: poly-histidine; made in house; host or cells: E. coli
# assay text: Kinetic thiol consumption assay with wild type Cdk2 (C177)
# Assay type: binding
# Parameters: key: k(Cdk2) divided by k(model thiol)
# experimental context: Cdk2 WT, no additional mutations
reported endpoint: Rate enhancement, Cdk2 WT

Guide cases for Rate enhancement, Cdk2 WT, answers given:
{"columns": ["compound", "assay target", "observed value"],
 "data": [
  ["C=CC(=O)NCc1ccccc1 [CA-009]", "human cyclin-dependent kinase 2 (Cdk2) (Homo sapiens)", 2.404],
  ["C=CC(=O)N1CC(CCN2CCCC2=O)c2ccccc21 (centres unmarked) [CA-089]", "human cyclin-dependent kinase 2 (Cdk2) (Homo sapiens)", 4.336]
]}

Entry C=CC(=O)Nc1ccc2c(c1)OC1(CCCC1)O2 [CA-054] , Rate enhancement, Cdk2 WT reported as 0.6163

Entry C=CC(=O)N1CCN(c2cc(N3CCOCC3)ncn2)CC1 [CA-179] , Rate enhancement, Cdk2 WT reported as 1.117

Entry C=CC(=O)N1CC(OCCN(CC)CC)C1 [CA-145] , Rate enhancement, Cdk2 WT reported as 0.6483
